Here the recorded melting point is given for each entry.

smilesData	melting point
NCC(c1ccccc1)c1ccccc1	43 to 49 °C
CCCOc1cc(O)cc(OCCC)c1	43 to 48 °C
c1ccc(-c2nnc(NC3=NCCN3CN3CCCCC3)s2)cc1	133 to 134 °C
S=C=Nc1cccc2nsnc12	88 to 89 °C
c1ccc(-c2ccccc2P(C2CCCCC2)C2CCCCC2)cc1	102 to 106 °C

###

Here the recorded melting point is given for each entry.

smilesData	melting point
CN(C)c1ccc(C=O)c(F)c1C#N	125 to 127 °C
O=c1[nH]c2ccc(Br)cc2s1	228 to 232 °C
Cc1cc(C)c(CC(=O)CSC#N)c(C)c1	125 to 126 °C

###

smilesData	melting point
COCCCn1c(-c2ccc(C(C)(C)C)cc2)n[nH]c1=S	116 to 118 °C
CCN(CC)C(=S)Cl	45 to 50 °C
O=c1c(Cl)c(Cl)cnn1Cc1ccccc1F	110 to 112 °C
CC(C)(C)OC(=O)NCC1CCNCC1	106 to 108 °C
COC(=O)c1ccc(C(=O)Cl)cc1	53 to 59 °C
CN(C)c1ccc(N=Nc2ccc(N=C=S)cc2)cc1	167 to 171 °C
OCc1snnc1-c1ccccc1	116 to 118 °C
NC(=O)N=NC(N)=O	195 to 202 °C
O=Cc1ccc2c(c1[N+](=O)[O-])C(=O)c1c(Cl)c(Cl)c(Cl)c(Cl)c1C2=O	265 to 268 °C
CNC(=O)c1cc([N+](=O)[O-])cc([N+](=O)[O-])c1	148 to 149 °C
CON=C(C(=O)O)c1csc(N)n1	176 to 182 °C
O=C(O)CNCCNCC(=O)O	224 to 225 °C
CCOC(=O)c1cc2c(=O)oc3ccccc3c2n(C)c1=O	202 to 203 °C
N#Cc1ccccc1OC1CCOCC1	51 to 55 °C
CC(=O)N(C)c1cccc(-c2ccc3nnc(C)n3n2)c1	200 to 201 °C
Cc1cc(C(=O)O)c2ccccc2n1	240 to 242 °C
N=C(N)N[C@@H](Cc1ccccc1)C(=O)O	250 to 253 °C
NC(=O)C1(N2CCCCC2)CCNCC1	129 to 132 °C
Cn1nc(-c2ccccc2)cc1C(=O)O	186 to 187 °C
O=C1OC(c2ccccc2)=NC1=Cc1ccccc1F	148 to 149 °C
COc1ccc(/C=C/c2ccc([N+](=O)[O-])cc2[N+](=O)[O-])cc1O	190 to 191 °C
CC(=O)c1cc(F)cc(F)c1O	109 to 110 °C

###

smilesData	melting point
O=C(O)c1cccc(N2CCCC2)c1	215 to 217 °C
NC(=O)Cc1nc(-c2ccc([N+](=O)[O-])cc2)cs1	202 to 203 °C
COC(=O)c1cnc(SC)nc1	96 to 97 °C

###

Here the recorded melting point is given for each entry.

compound	melting point
Clc1ccc(Br)cn1	70 °C
N=C(N)N/N=C(\C(=S)Nc1ccc(Br)cc1)c1ccccc1	210 to 211 °C
CC12CCC(O)CC1CCC1C3CCC(O)(C#Cc4ccccc4)C3CCC12 (stereo unspecified)	118 to 125 °C
O=C1CC2C(CC(OC(=O)c3ccccc3)C2COC(c2ccccc2)(c2ccccc2)c2ccccc2)O1 (single isomer, unassigned; (-))	183 to 185 °C
FC(F)(F)c1cc(Cl)c2nc(S)[nH]c2c1	310 to 312 °C
Cc1nc(C)c(Br)s1	153 to 155 °C
O=[N+]([O-])c1cccc(-c2nnc3n2NCS3)c1	200 °C
Clc1nc(Br)ns1	24 to 25 °C
O=C(O)C=CC(=O)Nc1ccc(F)cc1	209 to 212 °C
CSc1ncc(C=O)n1Cc1ccccc1	86 to 88 °C
COC(=O)c1cc(N)cc(O)c1	124 to 126 °C
Sc1cc(Cl)c(Cl)cc1Cl	117 to 118 °C
CC(C)(C)OC(=O)N1CCN(Cc2ccc(CO)cc2)CC1	52 to 53 °C
Cc1ccc([N+](=O)[O-])c(C)n1	32 to 38 °C
CC(C)(C)NC(=O)C(C(F)(F)F)C(F)(F)F	201 °C
O=C1OC2(c3ccc(Cl)cc3Oc3cc(Cl)ccc32)c2ccccc21	253 to 255 °C
O=C(Oc1c(F)c(F)c(F)c(F)c1F)c1ccc(-c2cnco2)cc1	141 to 143 °C
O=CNC(c1ccccc1)C(O)c1ccccc1 (stereo unspecified)	205 °C
O=C(CBr)c1cc2ccccc2o1	89 to 90 °C
O=C1/C(=N\O)C(c2ccc([N+](=O)[O-])cc2)=NN1c1ccccc1	222 to 224 °C
O=C(O)c1ccsc1Br	174 to 175 °C
